Hey, just so you know, these numbers are from paper PMC12154458.

Molecular target: UniProt A0A3Q0KMM5
Test: biochemical
measurement_name: Inhibition (%) Replicate B

1) C[C@]12CC[C@@H]3c4ccc(O)cc4C[C@@H](CCCCCCCCC[S+]([O-])CCCC(F)(F)C(F)(F)F)[C@H]3[C@@H]1CC[C@@H]2O (stereo partly drawn) [BRD-A85667082-001-11-9]: 64.71
2) Cc1cc(Oc2ccc3nc(COc4ccc(CC5SC(=O)NC5=O)cc4)n(C)c3c2)cc(C)c1N (stereo not drawn): 66.67
3) O=C(C[C@@H]1C[C@@H]2c3cc(NC(=O)NC4CCCC4)ccc3O[C@@H]2[C@H](CO)O1)NCc1ccccc1F: 84.52

* * *

Target: rSmTAChE (Schistosoma mansoni)
Format: biochemical
measurement_name: Data Mode (curve class), rSmTAChE

1) CCc1nc(-c2cccc(C)c2)c(-c2ccnc(NC(=O)c3ccccc3)c2)s1: inactive
2) CCCCCCCCCCCCc1ccc(S(=O)(=O)Nc2nncs2)cc1: decreasing
3) O=C(NCCCCN1CCN(c2cccc(Cl)c2Cl)CC1)c1ccc2c(c1)Cc1ccccc1-2: inactive
4) COc1ccc2cc(-c3cc(-c4cc(Cl)cc(Cl)c4)nn3[C@@H](C)c3ccc(C(=O)NCCC(=O)O)cc3)ccc2c1 [MK-0893, reference compound]: decreasing
5) CC(C)n1cnc2c(NCCc3ccc(O)cc3)nc(-c3csc4ccccc34)nc21: inactive
6) CC(=O)c1cc([N+](=O)[O-])c(Sc2cccc(Cl)c2Cl)s1: inactive
7) CCCCCCCCCCCC1=C(O)C(=O)C=C(O)C1=O [Embelin, reference compound]: decreasing
8) O=C(Nc1ccc(Cl)cc1)Nc1ccc(Cl)c(Cl)c1: inactive
9) CN(Cc1ccc(C(C)(C)C)cc1)Cc1cccc2ccccc12: inactive
10) CCCC[C@@H](CC)COC(=O)/C=C/c1ccc(OC)cc1: inactive
11) CC(C)=CCC/C(C)=C/CC/C(C)=C/CSc1ccccc1C(=O)O: decreasing
12) O=C(O)C1(C(=O)O)CCC1.[NH2-].[NH2-].[Pt+2]: decreasing
13) CC(C)(C)c1ccc(CN2CCN(C(c3ccccc3)c3ccc(Cl)cc3)CC2)cc1 (stereo not shown): inactive
14) O=C(O)Cn1nnc(-c2cc(N3CCC(Oc4cc(F)ccc4Br)CC3)no2)n1 [MK-8245, reference compound]: decreasing
15) CNC(=O)Oc1ccc2c(c1)[C@]1(C)CCN(C)[C@@H]1N2C [Physostigmine salicylate, reference compound]: decreasing
16) CCCCCCCCCCCCCCCC[N+](C)(C)CCN(Cc1ccc(OC)cc1)c1ncccn1 [Thonzonium bromide, reference compound]: decreasing
17) CCc1c(C(=O)NCCc2ccc(N3CCCCC3)cc2)[nH]c2ccc(Cl)cc12: inactive
18) Nc1nc(NCC2CCC(CNS(=O)(=O)c3cccc4ccccc34)CC2)nc2ccccc12 (stereo not shown) [CGP-71683, reference compound]: decreasing
19) CCOC(=O)N1c2ccc(C(F)(F)F)cc2[C@@H](N(Cc2cc(C(F)(F)F)cc(C(F)(F)F)c2)C(=O)OC)C[C@H]1CC: inactive
20) CCN(c1ccccc1)c1cc(=NC)n(C)c(C)n1 [ZD-7288, reference compound]: decreasing
21) O=C(O)c1ccc(-c2c[nH]c3ncc(-c4ccccc4)cc23)cc1C1CCCC1 [GSK-650394, reference compound]: decreasing
22) COC(=O)C1=C(C)NC(C)=C(C(=O)OC(C)(C)CN(C)CCC(c2ccccc2)c2ccccc2)C1c1cccc([N+](=O)[O-])c1 (stereo not shown): inactive
23) CN(C)C(=O)Oc1cccc([N+](C)(C)C)c1 [Neostigmine bromide, reference compound]: decreasing

* * *

Molecular target: rSmTAChE (Schistosoma mansoni)
Experiment: biochemical
measurement_name: Inhibition (%) Replicate B

1. COc1cccc(C#Cc2ccc([C@@H]3[C@@H](C#N)N(C(=O)c4ccccn4)[C@@H]3CO)cc2)c1: 72.60
2. Clc1ccc(C(Cn2ccnc2)OCc2ccc(Sc3ccccc3)cc2)c(Cl)c1 (stereo not shown): 76.40
3. CC(C)(C#N)c1ccc(N2C(=O)OCc3cnc4ccc(-c5cnc6ccccc6c5)cc4c32)cc1: 71.58
4. CCOC(=O)C1=C(C)NC(C)=C(C(=O)OCC)C1c1ccccc1/C=C/C(=O)OC(C)(C)C: 98.87
5. CCCCC/C=C\C/C=C\C/C=C\C/C=C\CCCC(=O)Nc1ccc(O)cc1: 76.90
6. COC(=O)/C=C/c1cccc(N(Cc2ccc(-c3ccc(N(C)C)cc3)cc2)C(=O)C2CCCCC2)c1: 63.46
7. CC#C[C@@H](CC(=O)O)c1ccc(OCc2cccc(-c3ccc(C(F)(F)F)cc3)c2)cc1: 79.10

* * *

Target: rSmTAChE (Schistosoma mansoni, UniProt A0A3Q0KMM5)
Sequence (A0A3Q0KMM5 27-661 limits assumed): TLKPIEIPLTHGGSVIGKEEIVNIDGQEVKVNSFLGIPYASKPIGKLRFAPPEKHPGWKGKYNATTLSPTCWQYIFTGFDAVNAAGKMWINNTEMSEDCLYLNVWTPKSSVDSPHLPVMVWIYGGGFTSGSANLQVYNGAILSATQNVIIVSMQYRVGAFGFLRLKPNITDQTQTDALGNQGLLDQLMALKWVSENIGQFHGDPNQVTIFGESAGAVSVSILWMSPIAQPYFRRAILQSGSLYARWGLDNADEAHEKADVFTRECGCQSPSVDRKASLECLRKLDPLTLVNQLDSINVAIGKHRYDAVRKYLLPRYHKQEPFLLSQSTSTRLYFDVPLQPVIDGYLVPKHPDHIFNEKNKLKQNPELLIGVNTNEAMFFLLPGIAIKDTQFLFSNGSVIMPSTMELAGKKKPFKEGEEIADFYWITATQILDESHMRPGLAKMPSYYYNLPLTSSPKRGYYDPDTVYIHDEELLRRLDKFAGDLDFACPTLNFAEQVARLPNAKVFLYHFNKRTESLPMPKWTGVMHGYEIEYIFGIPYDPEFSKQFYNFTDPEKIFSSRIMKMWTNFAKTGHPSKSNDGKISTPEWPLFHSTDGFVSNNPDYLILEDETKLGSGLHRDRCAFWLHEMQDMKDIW
Type: biochemical
measurement_name: rSmTAChE Data Mode

1) CCCC(=O)Nc1ccc2c(c1)OC[C@@H](C)N(Cc1cc(-c3ccccc3)on1)C[C@@H](C)[C@H](OC)CN(C)C2=O: inactive
2) COc1ccc(NC(=O)Nc2ccc3c(c2)[C@H]2C[C@@H](CC(=O)NCc4ccccn4)O[C@@H](CO)[C@H]2O3)cc1: decreasing
3) O=C(C[C@@H]1C[C@@H]2c3cc(NC(=O)NC4CCCC4)ccc3O[C@@H]2[C@@H](CO)O1)NCc1ccccc1F: inactive
4) N#C[C@H]1[C@@H](c2ccc(C#CC3CC3)cc2)[C@@H](CO)N1C(=O)Cc1ccccn1: inactive
5) O=C(C[C@@H]1C[C@@H]2c3cc(NC(=O)NC4CCCC4)ccc3O[C@@H]2[C@H](CO)O1)NCc1ccccc1F: inactive
6) CC(C)(C)[S+]([O-])N1Cc2cc(C(=O)NCCN3CCCC3)nc(-c3cccc(-c4ccc(C#N)cc4)c3)c2C1CCO (stereo not drawn): decreasing
7) N#C[C@H]1[C@H](c2ccc(C3=CCCCC3)cc2)[C@@H](CO)N1S(=O)(=O)c1ccccc1: inactive
8) COc1ccc(C#Cc2ccc3c(c2)O[C@H](CN(C)S(=O)(=O)c2ccccc2F)[C@H](C)CN([C@@H](C)CO)S3(=O)=O)cc1: inactive

* * *

Target: rSmTAChE (Schistosoma mansoni)
Type: biochemical
measurement_name: fold greater potency/selectivity for SmTAChE vs. HsAChE (Selectivity Index)

1. Nc1nc(NCC2CCC(CNS(=O)(=O)c3cccc4ccccc34)CC2)nc2ccccc12 (stereo not shown) [CGP-71683, reference compound]: about 10 fold
2. N.N.[Cl][Pt][Cl] [Cisplatin, reference compound]: about 10 fold
3. CCCCCCCCCCCC1=C(O)C(=O)C=C(O)C1=O [Embelin, reference compound]: 1.4 fold
4. CCN(c1ccccc1)c1cc(=NC)n(C)c(C)n1 [ZD-7288, reference compound]: ~50 fold

* * *

Target: rSmTAChE (Schistosoma mansoni, UniProt A0A3Q0KMM5)
Test: biochemical
measurement_name: Inhibition (%) (Average)

1) CCCCC(=O)O[C@H]1CC[C@H]2[C@@H]3CCc4cc(O)ccc4[C@H]3CC[C@]12C [BRD-K66766661-001-19-2]: 77.12%
2) O=C(Nc1ccccc1Br)N[C@@H]1CCN(c2ccc(C(F)(F)F)cn2)C1 [BRD-K65991129-001-02-9]: 65.52%
3) C[C@]12CC[C@@H]3c4ccc(O)cc4C[C@@H](CCCCCCCCC[S+]([O-])CCCC(F)(F)C(F)(F)F)[C@H]3[C@@H]1CC[C@@H]2O (stereo partly shown) [BRD-A85667082-001-11-9]: 64.36%
4) O=C(O)C1(C(=O)O)CCC1.[NH2-].[NH2-].[Pt+2] [BRD-K90947825-001-02-7]: 69.15%
5) C[C@]12CC[C@@H]3c4ccc(O)cc4C[C@@H](CCCCCCCCC[S+]([O-])CCCC(F)(F)C(F)(F)F)[C@H]3[C@@H]1CC[C@@H]2O (stereo partly shown) [BRD-A85667082-001-13-5]: 86.15%
6) COc1ccc(NC(=O)Nc2ccc3c(c2)[C@@H]2C[C@H](CC(=O)NCc4ccc5c(c4)OCO5)O[C@@H](CO)[C@@H]2O3)cc1 [BRD-K27599706-001-01-0]: 78.59%
7) CN(Cc1ccc(C(C)(C)C)cc1)Cc1cccc2ccccc12 [BRD-K90630139-003-05-9]: 62.99%

* * *

Target: recombinant human acetylcholinesterase, rHsAChE (Homo sapiens, UniProt P22303)
Sequence (P22303 32-614): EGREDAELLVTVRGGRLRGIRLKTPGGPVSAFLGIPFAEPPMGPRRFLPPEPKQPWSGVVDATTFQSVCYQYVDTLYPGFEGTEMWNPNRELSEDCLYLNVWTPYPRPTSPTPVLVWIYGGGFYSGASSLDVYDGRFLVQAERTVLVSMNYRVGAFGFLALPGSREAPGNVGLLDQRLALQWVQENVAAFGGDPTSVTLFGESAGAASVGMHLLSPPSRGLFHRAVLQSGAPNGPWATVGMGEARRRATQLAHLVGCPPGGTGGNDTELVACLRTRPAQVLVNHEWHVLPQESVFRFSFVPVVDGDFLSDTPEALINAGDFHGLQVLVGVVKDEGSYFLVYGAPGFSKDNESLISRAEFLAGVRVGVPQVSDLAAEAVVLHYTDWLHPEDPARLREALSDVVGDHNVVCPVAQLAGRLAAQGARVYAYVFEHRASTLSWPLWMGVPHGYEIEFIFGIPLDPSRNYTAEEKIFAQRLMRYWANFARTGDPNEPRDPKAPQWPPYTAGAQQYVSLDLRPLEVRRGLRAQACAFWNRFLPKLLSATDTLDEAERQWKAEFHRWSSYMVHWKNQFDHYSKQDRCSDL
Assay: biochemical
measurement_name: Data Mode (curve class), rHsAChE

1) CCCNC(=O)Nc1ccc(Oc2ncnc3cc(OC)c(OC)cc23)cc1Cl: inactive
2) COC(=O)/C=C/c1cccc(N(Cc2ccc(-c3ccc(N(C)C)cc3)cc2)C(=O)C2CCCCC2)c1: inactive
3) O=C(O)CNC(=O)c1c(O)c2ccccc2n(Cc2ccccc2)c1=O [IOX2, reference compound]: decreasing
4) CNC(=O)Oc1ccc2c(c1)[C@]1(C)CCN(C)[C@@H]1N2C [Physostigmine salicylate, reference compound]: decreasing
5) C[C@H](Oc1cc(-c2cnn(C3CCNCC3)c2)cnc1N)c1c(Cl)ccc(F)c1Cl: decreasing
6) CCCN1C[C@H](CSC)C[C@@H]2c3cccc4[nH]cc(c34)C[C@H]21: decreasing
7) C[C@@H]1C[C@H]2[C@@H]3CCC4=CC(=O)C=C[C@]4(C)[C@@]3(Cl)[C@@H](O)C[C@]2(C)[C@@]1(OC(=O)c1ccco1)C(=O)CCl: inactive
8) COCCOc1ccc2c(c1)ncn2-c1ccc2cccc(N3CCC(N)CC3)c2n1: decreasing
9) CCCCCCCCc1ccc(CCC(N)(CO)CO)cc1: inactive
